Below, each entry is listed alongside its reported GI50.
Test system: TK-10
Assay: NCI tumour cell line growth inhibition, 48 h
The source made the active and inactive calls. No stated cut-off is given here; in the data, active = GI50 up to about 1.1 µM and inactive = higher.

- COMPOUND: "CC1(C)C(=O)C(C)(C)C1=NNC(N)=S"
  GI50: "> 100 µM (inactive)"
- COMPOUND: "CC(Oc1ccc(Oc2cnc3ccc(Cl)cc3n2)cc1)C(=O)O (stereo not given)"
  GI50: "> 95.9 µM (inactive)"
- COMPOUND: "C=CC1(C)/C(=N\\O)C(C)(CC)C(=O)N1O (stereo not given)"
  GI50: "> 100 µM (inactive)"
- COMPOUND: "Oc1ccc(Cl)cc1-c1cc(-c2ccccc2)nc(S)n1"
  GI50: "30.5 µM (inactive)"
- COMPOUND: "CC/C(C)=C1\\OC(=O)C(C)C(O)C(Cc2cccnc2)NC(=O)C(NC(=O)c2ncccc2O)C(C)OC1=O (stereo not given)"
  GI50: "> 100 µM (inactive)"
- COMPOUND: "O=C(Nc1ccc(N2C(=O)CSC2c2ccccc2O)cc1)c1ccc(N2C(=O)CSC2c2ccccc2O)cc1 (stereo not given)"
  GI50: "74 µM (inactive)"
- COMPOUND: "NC(=S)N/N=C(\\CC1OC(=O)c2ccccc21)c1ccc(Cl)cc1 (stereo not given)"
  GI50: "76.9 µM (inactive)"
- COMPOUND: "CC1C2=C(O)CC(C)(C)CC2=NC2=C1C(=O)CC(C)(C)C2 (stereo not given)"
  GI50: "> 100 µM (inactive)"
- COMPOUND: "C=CCNC(=O)N(CCCCC(NC(C)=O)C(=O)NCc1ccccc1)Cc1ccccc1 (stereo not given)"
  GI50: "> 100 µM (inactive)"
- COMPOUND: "CC(C)[C@H](NC(=O)[C@H](N)Cc1ccc(N(CCCl)CCCl)cc1)C(=O)O"
  GI50: "> 100 µM (inactive)"
